System: HOP-18 NSCLC
assay: NCI tumour cell line growth inhibition, 48 h
Quick reference for TGI among some compounds

{"compound": "COc1ccc2c(c1)C(=O)N1CCOC1C2C(=O)O (stereo unspecified)", "TGI": "> 100 µM"}
{"compound": "Cn1c2c(c3ccccc31)CCN(CCN1CCN(c3ccccc3)CC1)C2=O", "TGI": "> 100 µM"}
{"compound": "O=C(O)C1=CCCc2ccc3ccccc3c21", "TGI": "> 100 µM"}
{"compound": "CN(C)CCN(C)CC1COC(C)(C)O1 (stereo unspecified)", "TGI": "> 100 µM"}
{"compound": "CCCCCCCCCCCCCCCc1ccc(OCC(O)CO)cc1 (stereo unspecified)", "TGI": "> 100 µM"}
{"compound": "Cc1ccccc1C1=[N+]([O-])c2ccccc2C1=O", "TGI": "54.4 µM"}
{"compound": "C/C=C/C1=C(Cl)C(=O)[C@@H](Cl)[C@@]1(O)C(=O)OC", "TGI": "11 µM"}
{"compound": "Nc1nc(NCCO)c(N=O)c(=O)[nH]1", "TGI": "> 100 µM"}
{"compound": "Cc1nc2c(n1C)C(=O)c1nc(CBr)[nH]c(=O)c1C2=O", "TGI": "> 100 µM"}
{"compound": "CC(=O)O[C@@]12CO[C@@H]1C[C@H](O)[C@@]1(C)C(=O)[C@H](O)C3=C(C)[C@@H](OC(=O)[C@H](O)[C@@H](NC(=O)OC(C)(C)C)c4ccccc4)C[C@@](O)([C@@H](OC(=O)c4ccccc4)[C@H]21)C3(C)C", "TGI": "74.5 µM"}
{"compound": "COc1ccc(/C(Cl)=C(/c2ccc(O)cc2)c2ccc(OCCN(C)C)cc2)cc1", "TGI": "25 µM"}

====

Tested on: XF 498 CNS
assay: NCI tumour cell line growth inhibition, 48 h
Quick reference for TGI among some compounds
reported.metric: TGI

{"compound": "CCOC(=O)N1C2C=C(C)C(ON2C(=O)c2ccccc2)C2C(C)C(=O)N21 (stereo unspecified)", "reading": "> 100 µM"}
{"compound": "CCC[CH2][Sn]([CH2]CCC)([O]C(=O)c1cc(F)ccc1F)[O][Sn]([CH2]CCC)([CH2]CCC)[O]C(=O)c1cc(F)ccc1F", "reading": "0.305 µM"}
{"compound": "COC(c1cccc(C(O)(C(F)(F)F)C(F)(F)F)c1)(C(F)(F)F)C(F)(F)F", "reading": "28.2 µM"}
{"compound": "O=C(O)C1=CCCc2ccc3ccccc3c21", "reading": "> 100 µM"}
{"compound": "COC(=O)C1CCC(Nc2ccc(C)cc2C)=N1 (stereo unspecified)", "reading": "> 100 µM"}
{"compound": "Nc1nc2sc3ccccc3c(=O)n2n1", "reading": "> 100 µM"}
{"compound": "Cc1noc2cccc(OCc3ccccc3)c12", "reading": "> 100 µM"}
{"compound": "N#CC(/C(=N/NC(=O)C(=O)NN)C(=O)Nc1nc([N+](=O)[O-])cs1)c1ccc(Cl)cc1 (stereo unspecified)", "reading": "> 100 µM"}
{"compound": "N#CCCN(c1ccc(/C=C2\\N=C(Cc3ccccc3)OC2=O)cc1)S(=O)(=O)c1ccccc1", "reading": "> 100 µM"}
{"compound": "CC(=O)N1c2ccccc2C2=CC3C4C(=O)N(c5ccccc5)C(=O)C4C21C1C(=O)N(c2ccccc2)C(=O)C31 (stereo unspecified)", "reading": "76.8 µM"}
{"compound": "N#CC(C(=O)/C(=N/NC(=O)c1ccccc1O)C(C#N)c1ccccc1)c1ccccc1 (stereo unspecified)", "reading": "> 100 µM"}
